meta.source: ChEMBL document CHEMBL5034023

assaySystem: Delta-type opioid receptor (Homo sapiens)
Sequence (P41143 whole entry): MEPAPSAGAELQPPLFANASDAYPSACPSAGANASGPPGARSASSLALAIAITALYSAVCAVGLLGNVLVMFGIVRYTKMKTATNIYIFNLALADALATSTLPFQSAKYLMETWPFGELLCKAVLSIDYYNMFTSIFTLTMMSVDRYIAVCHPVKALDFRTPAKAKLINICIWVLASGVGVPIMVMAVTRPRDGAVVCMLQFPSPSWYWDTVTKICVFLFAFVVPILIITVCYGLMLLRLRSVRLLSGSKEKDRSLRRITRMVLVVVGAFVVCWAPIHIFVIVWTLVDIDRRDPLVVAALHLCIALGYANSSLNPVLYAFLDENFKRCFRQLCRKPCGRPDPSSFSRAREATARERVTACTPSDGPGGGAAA
assayRemarks: Agonist activity at DOR (unknown origin) expressed in HEK293-A cells assessed as inhibition of forskolin-induced cAMP accumulation preincubated for 30 mins in presence of 3-isobutyl-1-methylxanthine followed by forskolin and compound addition by competitive PKA binding assay relative to control
Assay type: functional, cell-based
conditionSet: filed as agonist
Bridge positions count the residues as written; N and C are the ends. Square brackets hold non-standard residues; d marks the D form. Peptide text beside a SMILES is read from it. NMeF = CN[C@@H](Cc1ccccc1)C(=O)O; dOrn = NCCC[C@@H](N)C(=O)O; dDap = NC[C@@H](N)C(=O)O
Returns: string. Value is fulfilled if measured Emax is below 60%, and not fulfilled if it is greater than or equal to it.

>  <molecule>
CN1C(=O)CNC(=O)[C@@H](NC(=O)[C@@H](N)Cc2ccc(O)cc2)CCCCNC(=O)C[C@H](C(=O)N2CCC[C@H]2C(=O)N[C@@H](CCC(N)=O)C(=O)N[C@@H](CCCNC(=N)N)C(=O)N[C@@H](Cc2ccccc2)C(N)=O)NC(=O)[C@@H]1Cc1ccccc1 (H-YKG[NMeF][dD]PQRF-NH2; lactam 2-5)

>  <assaySystem>
Delta-type opioid receptor (Homo sapiens)

>  <answerLabel>
not fulfilled

$$$$
>  <molecule>
CN1C(=O)CNC(=O)[C@H](NC(=O)[C@@H](N)Cc2ccc(O)cc2)CCCCNC(=O)C[C@@H](C(=O)N2CCC[C@H]2C(=O)N[C@@H](CCC(N)=O)C(=O)N[C@@H](CCCNC(=N)N)C(=O)N[C@@H](Cc2ccccc2)C(N)=O)NC(=O)[C@@H]1Cc1ccccc1 (H-Y[dK]G[NMeF]DPQRF-NH2; lactam 2-5)

>  <assaySystem>
Delta-type opioid receptor (Homo sapiens)

>  <answerLabel>
fulfilled

$$$$
>  <molecule>
CN1C(=O)CNC(=O)[C@H](NC(=O)[C@@H](N)Cc2ccc(O)cc2)CCCNC(=O)C[C@@H](C(=O)N2CCC[C@H]2C(=O)N[C@@H](CCC(N)=O)C(=O)N[C@@H](CCCNC(=N)N)C(=O)N[C@@H](Cc2ccccc2)C(N)=O)NC(=O)[C@@H]1Cc1ccccc1 (H-Y[dOrn]G[NMeF]DPQRF-NH2; lactam 2-5)

>  <assaySystem>
Delta-type opioid receptor (Homo sapiens)

>  <answerLabel>
fulfilled

$$$$
>  <molecule>
CN1C(=O)CNC(=O)[C@@H](NC(=O)[C@@H](N)Cc2ccc(O)cc2)CCCCNC(=O)C[C@@H](C(=O)N2CCC[C@H]2C(=O)N[C@@H](CCC(N)=O)C(=O)N[C@@H](CCCNC(=N)N)C(=O)N[C@@H](Cc2ccccc2)C(N)=O)NC(=O)[C@@H]1Cc1ccccc1 (H-YKG[NMeF]DPQRF-NH2; lactam 2-5)

>  <assaySystem>
Delta-type opioid receptor (Homo sapiens)

>  <answerLabel>
not fulfilled

$$$$
>  <molecule>
CN1C(=O)CNC(=O)[C@H](NC(=O)[C@@H](N)Cc2ccc(O)cc2)CNC(=O)C[C@@H](C(=O)N2CCC[C@H]2C(=O)N[C@@H](CCC(N)=O)C(=O)N[C@@H](CCCNC(=N)N)C(=O)N[C@@H](Cc2ccccc2)C(N)=O)NC(=O)[C@@H]1Cc1ccccc1 (H-Y[dDap]G[NMeF]DPQRF-NH2; lactam 2-5)

>  <assaySystem>
Delta-type opioid receptor (Homo sapiens)

>  <answerLabel>
fulfilled

$$$$
>  <molecule>
CN1C(=O)CNC(=O)[C@H](NC(=O)[C@@H](N)Cc2ccc(O)cc2)CC(=O)NCCCC[C@@H](C(=O)N2CCC[C@H]2C(=O)N[C@@H](CCC(N)=O)C(=O)N[C@@H](CCCNC(=N)N)C(=O)N[C@@H](Cc2ccccc2)C(N)=O)NC(=O)[C@@H]1Cc1ccccc1 (H-Y[dD]G[NMeF]KPQRF-NH2; lactam 2-5)

>  <assaySystem>
Delta-type opioid receptor (Homo sapiens)

>  <answerLabel>
fulfilled

$$$$
